Parameter: kon. Scope: all listed entries.
Study Target: human DLL3 protein (extracellular segment, His tag) (human) (UniProt Q9NYJ7)
Sequence (Q9NYJ7 27-492): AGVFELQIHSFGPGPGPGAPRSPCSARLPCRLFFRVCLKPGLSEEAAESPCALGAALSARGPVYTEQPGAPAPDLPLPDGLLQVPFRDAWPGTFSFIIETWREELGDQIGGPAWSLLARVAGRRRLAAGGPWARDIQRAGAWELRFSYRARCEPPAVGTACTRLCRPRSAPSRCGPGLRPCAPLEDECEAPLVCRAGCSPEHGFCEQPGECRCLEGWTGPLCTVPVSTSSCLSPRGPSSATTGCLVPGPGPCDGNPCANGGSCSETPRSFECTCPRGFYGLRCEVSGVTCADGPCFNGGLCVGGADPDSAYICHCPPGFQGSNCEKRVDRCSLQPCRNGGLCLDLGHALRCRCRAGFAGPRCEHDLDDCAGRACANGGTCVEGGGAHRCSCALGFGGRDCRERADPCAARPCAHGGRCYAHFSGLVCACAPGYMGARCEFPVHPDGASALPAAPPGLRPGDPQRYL
Assay Comment: SPR (Biacore 8K), antibody captured on Protein A chip, DLL3 antigen in solution, 1:1 Langmuir fit
Measurement Name: kon (M⁻¹ s⁻¹)

[[record]]
binder = "mab009 scFv-hFc (Fc fusion, part only; not given: Linker and human IgG1 Fc, not shown: a dimerising Fc or GST) scFv, part: DIVMTQSPATLSVTPGDRVSLSCRASQTISDYLHWYQQRSHESPRLLIKYASQSISGIPSRFSGSGSGSDFTLSINSVEPEDVGVYYCQNGHSFPLTFGAGTKLELKEVQLQQSGTVLARPGASVKMSCKTSGYTFTSYWMHWVKQSPGQGLEWIGTIYPGNSDTRYNQKFKDKAYVTAVTSASTAYMELSSLTNEESAVYYCTRSYDYGDLDYWGQGTTLTVSS"
obs_value = "6.13e+06"

[[record]]
binder = "Hab015VL4VH1b-hFc (scFv, part only; not given: VL-VH linker and human IgG1 Fc, V domains shown, not shown: another chain or arm of the molecule; a dimerising Fc or GST; small tags and cut ends) VL: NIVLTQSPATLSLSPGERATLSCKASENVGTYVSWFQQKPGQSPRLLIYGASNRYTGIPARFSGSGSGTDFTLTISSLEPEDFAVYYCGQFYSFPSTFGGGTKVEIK VH: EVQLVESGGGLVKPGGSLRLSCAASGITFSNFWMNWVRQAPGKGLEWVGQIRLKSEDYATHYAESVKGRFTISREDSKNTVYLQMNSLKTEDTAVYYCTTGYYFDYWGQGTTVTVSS"
obs_value = "1.8e+06"

[[record]]
binder = "mab006 scFv-hFc (Fc fusion, part only; not given: linker and human IgG1 Fc, not shown: a dimerising Fc or GST) scFv, part: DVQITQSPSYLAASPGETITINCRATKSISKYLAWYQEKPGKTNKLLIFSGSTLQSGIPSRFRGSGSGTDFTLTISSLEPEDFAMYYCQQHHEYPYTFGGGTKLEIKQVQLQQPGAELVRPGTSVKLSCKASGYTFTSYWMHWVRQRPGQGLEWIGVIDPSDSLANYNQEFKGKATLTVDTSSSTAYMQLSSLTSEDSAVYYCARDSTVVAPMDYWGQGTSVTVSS"
obs_value = 162000

